Target: OsSMF1 (Oryza sativa, UniProt Q6ZLB0 1-436)
Sequence: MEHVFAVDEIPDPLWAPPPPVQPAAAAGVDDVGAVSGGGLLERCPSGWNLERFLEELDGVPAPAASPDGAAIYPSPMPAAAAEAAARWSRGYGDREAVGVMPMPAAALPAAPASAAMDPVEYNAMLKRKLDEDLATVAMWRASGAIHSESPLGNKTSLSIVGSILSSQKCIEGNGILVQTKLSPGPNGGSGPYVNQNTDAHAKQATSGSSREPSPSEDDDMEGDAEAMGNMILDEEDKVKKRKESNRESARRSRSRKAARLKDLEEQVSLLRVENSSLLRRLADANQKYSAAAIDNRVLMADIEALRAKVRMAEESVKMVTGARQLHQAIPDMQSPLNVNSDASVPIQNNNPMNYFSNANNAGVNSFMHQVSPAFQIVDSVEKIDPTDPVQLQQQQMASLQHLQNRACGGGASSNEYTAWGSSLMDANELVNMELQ
Assay: protein-binding microarray (RPBM); PBS, 2% BSA, 51.3 ng/ul salmon testes DNA, 50 uM zinc acetate, 200 nM TF, 25 C, 1 h; high values mean tight binding
Conditions: protein: recombinant; tags: N-terminal polyhistidine and DsRed monomer fusion (pET32a); chain copies: 2; label: CyDye5-dUTP incorporated in the synthesized complementary strand; 3' TTTTT single-stranded linker to array surface; dsDNA, one strand shown
In all, about 39,000 sequences were measured (“fluorescence intensity (a.u.)”: median about 4,300, highest 2% from about 39,000 on). Shown is part of a subset that was picked to be rich in the highest values.

{"entry-sequence": "TAAGGAGGGTGTTGGGAGGGTGGGAGCTTTGCTTGGGGTGCGGAGTCACCTAGTGCAG", "binding signal": "3950 fluorescence intensity (a.u.)"}
{"entry-sequence": "ATATGAGATATTTCATATGCTGTTTATTGCTGCTGCCAGACGGAGTCACCTAGTGCAG", "binding signal": "6080 fluorescence intensity (a.u.)"}
{"entry-sequence": "CACCATTTTGGGCCGACACATCAAGCAGGCCAACGCGCAGCGGAGTCACCTAGTGCAG", "binding signal": "3300 fluorescence intensity (a.u.)"}
{"entry-sequence": "CAAATGCAGAAAAGATAATCTCCTTTCTCTCTCTATTAAACGGAGTCACCTAGTGCAG", "binding signal": "31100 fluorescence intensity (a.u.)"}
{"entry-sequence": "AATTACCACCCTAACTCAATTAGAAGCGGTTTTCAGCCTACGGAGTCACCTAGTGCAG", "binding signal": "52400 fluorescence intensity (a.u.)"}
{"entry-sequence": "TACCGTCCCTCAACTTTATGTCGAGTCTATATGACATACCCGGAGTCACCTAGTGCAG", "binding signal": "4220 fluorescence intensity (a.u.)"}
{"entry-sequence": "TTGTCCCTATAATAATATGTCACTCAAAATTGCTAATAAACGGAGTCACCTAGTGCAG", "binding signal": "3400 fluorescence intensity (a.u.)"}
{"entry-sequence": "GCTGGTTTGATTAGATCTTCATCCCACGTGGCATTGACGTCGGAGTCACCTAGTGCAG", "binding signal": "25100 fluorescence intensity (a.u.)"}
{"entry-sequence": "TTATCTCCAATTTAAGCAACCAGAGGAATATATATGCTTGCGGAGTCACCTAGTGCAG", "binding signal": "53500 fluorescence intensity (a.u.)"}
{"entry-sequence": "AAGAGATCCTTGTGTTTCGGAAGAATTTTGGTTGGTGTATCGGAGTCACCTAGTGCAG", "binding signal": "23500 fluorescence intensity (a.u.)"}
{"entry-sequence": "GCTTGCGCCAAAACCAAACATAGAGCAGCAATAGAGAGGACGGAGTCACCTAGTGCAG", "binding signal": "3610 fluorescence intensity (a.u.)"}
{"entry-sequence": "GTTTTGGCTGACGTGGCGCCTACGTGGTTTGTTTGACCTACGGAGTCACCTAGTGCAG", "binding signal": "37300 fluorescence intensity (a.u.)"}
{"entry-sequence": "AACAAAAGTTGTTTTGACTCACGCGGTGGCTGTTGTCTGTCGGAGTCACCTAGTGCAG", "binding signal": "6340 fluorescence intensity (a.u.)"}
{"entry-sequence": "CTTGCATTCCTTTTCTTCTCCTGAACTATATAAACACACTCGGAGTCACCTAGTGCAG", "binding signal": "3290 fluorescence intensity (a.u.)"}
{"entry-sequence": "GATGTTACGCGTGTAATGGTGTGTGCGTGTATATACTTTGCGGAGTCACCTAGTGCAG", "binding signal": "7330 fluorescence intensity (a.u.)"}
{"entry-sequence": "CCCTGTCCTGAAACGCCGTGACGGCTTCTCCTTCTCCCTCCGGAGTCACCTAGTGCAG", "binding signal": "8960 fluorescence intensity (a.u.)"}
{"entry-sequence": "CAAAATACTCAAGCGGCGGCATTGTCATCTTCCTCCTCCCCGGAGTCACCTAGTGCAG", "binding signal": "3550 fluorescence intensity (a.u.)"}
{"entry-sequence": "CATCCTAACGGATTATTCTCTCAACCCCACGAACCATTCACGGAGTCACCTAGTGCAG", "binding signal": "19200 fluorescence intensity (a.u.)"}
{"entry-sequence": "TCTATAAATATGATGTGGCTATGTACTCAGTACTCACCTGCGGAGTCACCTAGTGCAG", "binding signal": "6690 fluorescence intensity (a.u.)"}
{"entry-sequence": "TAAAATCTAGATGCAATGAGTTATTTCATATGATTTGAAACGGAGTCACCTAGTGCAG", "binding signal": "17000 fluorescence intensity (a.u.)"}
{"entry-sequence": "AGTGCTTTATCACACAGAATCAATACCCAAGAAGCATATGCGGAGTCACCTAGTGCAG", "binding signal": "41000 fluorescence intensity (a.u.)"}
{"entry-sequence": "TCTCGCCTACCACCAAGCTCATCTCGTTTCGTTAGCTACCCGGAGTCACCTAGTGCAG", "binding signal": "41600 fluorescence intensity (a.u.)"}
{"entry-sequence": "GTCGCGCGCTTGGTGGCTTGCAAGAACCAGCTCCACCGCGCGGAGTCACCTAGTGCAG", "binding signal": "3300 fluorescence intensity (a.u.)"}
{"entry-sequence": "ATTATGAGCCATGATTCTCTCATCATGCAATGTCCCAGCACGGAGTCACCTAGTGCAG", "binding signal": "22100 fluorescence intensity (a.u.)"}
{"entry-sequence": "AAATGTTATGAGTACGATGACACATTAAAACACAGTCATTCGGAGTCACCTAGTGCAG", "binding signal": "4650 fluorescence intensity (a.u.)"}

* * *

Molecular target: OsSMF1 (Oryza sativa, UniProt Q6ZLB0 1-436)
Sequence: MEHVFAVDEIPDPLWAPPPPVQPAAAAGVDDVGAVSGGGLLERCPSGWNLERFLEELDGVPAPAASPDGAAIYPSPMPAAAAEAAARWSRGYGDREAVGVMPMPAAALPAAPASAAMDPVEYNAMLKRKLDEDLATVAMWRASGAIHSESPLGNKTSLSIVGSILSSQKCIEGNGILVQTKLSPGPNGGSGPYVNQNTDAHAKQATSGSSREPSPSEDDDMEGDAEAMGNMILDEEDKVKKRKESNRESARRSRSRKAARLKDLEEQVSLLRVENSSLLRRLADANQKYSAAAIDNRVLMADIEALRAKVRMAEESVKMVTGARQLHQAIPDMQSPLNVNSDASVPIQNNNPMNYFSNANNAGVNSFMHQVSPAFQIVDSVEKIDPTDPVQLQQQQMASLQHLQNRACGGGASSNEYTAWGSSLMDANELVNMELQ
Experiment: protein-binding microarray (RPBM); PBS, 2% BSA, 51.3 ng/ul salmon testes DNA, 50 uM zinc acetate, 200 nM TF, 25 C, 1 h; high values mean tight binding
Conditions: protein: recombinant; tags: N-terminal polyhistidine and DsRed monomer fusion (pET32a); chain copies: 2; label: CyDye5-dUTP incorporated in the synthesized complementary strand; 3' TTTTT single-stranded linker to array surface; dsDNA, one strand shown
The full ranking holds about 39,000 sequences; the median of “fluorescence intensity (a.u.)” is about 4,300, and the highest 2% start at about 39,000. The list comes from a sample in which the highest values are over-represented; it also holds close analogues and randomly drawn sequences.

{"entry-sequence": "TAGAAAGTGCCCAATTAGTATAGGTATAGATAGATAGACTCGGAGTCACCTAGTGCAG", "system": "OsSMF1 (Oryza sativa, UniProt Q6ZLB0 1-436)", "binding signal": "51000 fluorescence intensity (a.u.)"}
{"entry-sequence": "ACATGCCGCTAGGAAATATCCCATCCGGTGCCTGTCTAGACGGAGTCACCTAGTGCAG", "system": "OsSMF1 (Oryza sativa, UniProt Q6ZLB0 1-436)", "binding signal": "3150 fluorescence intensity (a.u.)"}
{"entry-sequence": "CACCCACGAGCACACCCGTACCAGGGGACGAGGAGGTGGACGGAGTCACCTAGTGCAG", "system": "OsSMF1 (Oryza sativa, UniProt Q6ZLB0 1-436)", "binding signal": "38300 fluorescence intensity (a.u.)"}
{"entry-sequence": "CGGTGCGAGGTACTACGTCAAGGCGTACGAGGCCAGGTACCGGAGTCACCTAGTGCAG", "system": "OsSMF1 (Oryza sativa, UniProt Q6ZLB0 1-436)", "binding signal": "3140 fluorescence intensity (a.u.)"}
{"entry-sequence": "CGCATACCGGCCAGAAACACGACGGCGACGAGGTGCACTACGGAGTCACCTAGTGCAG", "system": "OsSMF1 (Oryza sativa, UniProt Q6ZLB0 1-436)", "binding signal": "41500 fluorescence intensity (a.u.)"}
{"entry-sequence": "CCACGCGTCGTCGACGTACTGCGCGATGACGGCGGACTCGCGGAGTCACCTAGTGCAG", "system": "OsSMF1 (Oryza sativa, UniProt Q6ZLB0 1-436)", "binding signal": "4700 fluorescence intensity (a.u.)"}
{"entry-sequence": "GCCTCGAACGACGTGTGGACGCGATGGAAGATGCGTTCTGCGGAGTCACCTAGTGCAG", "system": "OsSMF1 (Oryza sativa, UniProt Q6ZLB0 1-436)", "binding signal": "3210 fluorescence intensity (a.u.)"}
{"entry-sequence": "CTAGACGCCGGCGACGACGAGGGTGGTTGGGTTGTGGATACGGAGTCACCTAGTGCAG", "system": "OsSMF1 (Oryza sativa, UniProt Q6ZLB0 1-436)", "binding signal": "3740 fluorescence intensity (a.u.)"}
{"entry-sequence": "AGGGGCCACACCGACCCTCCACGTCATCGTCCACGTCACCCGGAGTCACCTAGTGCAG", "system": "OsSMF1 (Oryza sativa, UniProt Q6ZLB0 1-436)", "binding signal": "40900 fluorescence intensity (a.u.)"}
{"entry-sequence": "GGAAGGCGACGCGTTACTGTGCACGATGCGGACCTCGAAACGGAGTCACCTAGTGCAG", "system": "OsSMF1 (Oryza sativa, UniProt Q6ZLB0 1-436)", "binding signal": "60400 fluorescence intensity (a.u.)"}
